Test: Mouse pharmacokinetics study, single i.v. injection
Assay type: in vivo, male CD1 mice
Details: male, CD1, mouse, plasma, iv, mice; read-out: values of total clearance in the range
Square brackets hold non-standard residues; d marks the D form. Peptide text beside a SMILES is read from it. * marks the point of attachment. Cbz = O=C(OCc1ccccc1)*
measurement-name: clearance

In: Entry N=C(N)NCCC[C@@H](NC(=O)[C@@H](CCC(=O)O)NC(=O)[C@@H](Cc1ccc(O)cc1)NC(=O)OCc1ccccc1)C(=O)N[C@H](Cc1ccccc1)C(N)=O [Compound 9, Z-D-Tyr-D-Glu-D-Arg-D-Phe-NH2] (Cbz-[dY][dE][dR][dF]-NH2) has what clearance?
Out: 66 to 90 mL/min/kg

src = patent US8993717B2
